assay: yeast display, Sf9 membrane polyspecificity reagent, FACS + sequencing; frameworks hold sequencing errors
observed_property: polyreactivity (PSR sort gate)

Some solved cases for reference:
QVQIVESGGGLVQAGGSLRVSCAASGSTFAVYAMGWYRQAPGKEREMVAAISQSGGSTNYADSVKGRFTISRDNAKNTVYLQMNSLKPEDTAVYYCNVDVSRSWAQPYTYDYWGHGTQVTVSS : low polyreactivity
QVQLVESGGGVVQAGGSLRLSCAASGRTFPYYTMGWYRQAPGKERELVAAITRSGDSTYYADSVKGRFTISRDNAKNTVYLQMYSLKPEDTAVYYCAADIWSSDYEEFYYWGLGTQVTVSS : low polyreactivity
QVQLVESGGGLVQAGGSLRLSCAASGSIFEWYAMGWYRQAPGKERELVADISSVGSTYYADSVKGRFTISRDNAKNTVYLQMNSLKPEDTAVYYCNTSYIIWYDSWGQGTQVTVSS : low polyreactivity
QVQLVVSGGGLVQAGGILRLICAASGIIFSFYTMGGYRQAPGKERELVAAISTGGGSTYYADSVKGRFTISRDNAKNTVYLQMNSLIPEDTAVSYCAASQSWYWGGAHDNGEFGYCGQGTQVTVSS : low polyreactivity
QVQLVESGVGLVQAGCSLRLSCAASGFTNAMGWYRQAPGKERELVAAISYSGDSTNYADSLKGRFTISRDNAKNTVYLQMNSMKPVDTAVYYCNASSPYDYDWGQGTQVTVSS : low polyreactivity

Please give the measured polyreactivity (PSR sort gate) for this sequence: `QVQLVESGGGLVQAGGSLRLSCAASGSTFTGYAMGWYRQAPGKERELVAAISISGGRTFYADSVKGRFTISRDNAKNTVYLQMNSLKPEDTAVYFCAAYLRGSKYSFDYWVQGTQVTVSS` high polyreactivity

Field request: polyreactivity (PSR sort gate) | item: `QVQIVESGGGLVEAGGSLRLTCAASGSIFGGNAMGWYRQAPGKERELVAAITSTVSTNYADSVKGRFTISRDNAKNTVYLQMNSLKPEDNAVYYCATDTSNVEGDYWGQGTQVTVSS` low polyreactivity
